The following compounds are shown together with reported GI50 values.
Test system: EKVX
ASSAY_PROCEDURE: NCI tumour cell line growth inhibition, 48 h
Calls of active or inactive are those of the source. Cut-off read from the data, not from the text of the source: active = GI50 up to about 1.1 µM and inactive = higher.

Reference set (8 entries):
State the recorded GI50 for this entry: "NCCCCNCCCNC(=O)c1nc(-c2csc(CCN)n2)sc1Cl" > 100 µM (inactive)

Then what about the compound "COC(=O)C[C@H](COCc1ccccc1)NC(=O)C[C@H](COCc1ccccc1)NC(=O)C[C@H](COCc1ccccc1)NC(=O)OC(C)(C)C" ? 25.8 µM (inactive)

Query CC(/C=C/NNC1=NN=C(c2ccccc2)C(c2ccccc2)N1)Sc1ccccc1N (stereo not given) next 18.5 µM (inactive)

Try this compound next: "CC/C(SC)=[N+](\C)[O-]" > 100 µM (inactive)

Please give the result for "Cc1cc(=O)oc2c(C)c(OCCCOc3ccc4c(C)cc(=O)oc4c3C)ccc12" too. > 100 µM (inactive)

Another: "CC(=O)OC[C@@]12Cc3ccc(C)c(O)c3[C@]1(C)[C@@H](OC(C)=O)[C@]1(O)[C@H]([C@@H](OC(=O)c3ccccc3)[C@@H](C)[C@H]1OC(C)=O)[C@H]2OC(C)=O" > 50 µM (inactive)

Now the compound NC1=NCC(CN2CCCCC2)O1 (stereo not given) > 100 µM (inactive)

Now consider "CC1(C)C=Cc2c(cc3oc4ccc5c(c4c(=O)c3c2O)C=CC(C)(C)O5)O1" and answer again. > 100 µM (inactive)

Further cases:
Returns the measured GI50 for the input compound. Input: N#CC1C(=S)NC(c2ccccc2)=CC12CCCCC2 (stereo not given) 17.8 µM (inactive)

Next: "O=C(OCc1ccccc1)C1(N2CN(C3(C(=O)OCc4ccccc4)CCCC3)CN(C3(C(=O)OCc4ccccc4)CCCC3)C2)CCCC1" > 10 µM (inactive)
